# target-entity: recombinant eIF4E (Homo sapiens (Human), UniProt P06730)
# Sequence (P06730 whole entry): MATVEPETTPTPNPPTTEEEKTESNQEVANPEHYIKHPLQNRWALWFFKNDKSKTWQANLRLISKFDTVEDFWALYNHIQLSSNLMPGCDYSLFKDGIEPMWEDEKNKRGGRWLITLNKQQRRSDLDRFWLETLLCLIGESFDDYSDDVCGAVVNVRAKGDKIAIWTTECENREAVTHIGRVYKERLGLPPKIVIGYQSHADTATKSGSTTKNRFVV
# procedure-summary: Fluorescence polarization competition assay for eIF4E binding potency
# test-context: inhibition of eIF4E/EDA-m7GDP-ATTO-550 binding; calculated IC50 values, Table 4B; read-out: IC50
Exercise: state measured pIC50 for each of the compounds provided.
Interpret pIC50 as the negative base-10 log of the concentration measured in mol/L.

Look at this compound and give its reported pIC50. "Cc1nc2cnc(N(C)C3CCN([C@H]4C[C@@H]4C(F)(F)F)CC3)c(C#N)c2c(=O)n1CC#Cc1ccc(Cl)cc1-c1ccnc2c(C(=O)O)csc12"
8.39

Do the same for "Cc1nc2cnc(N(C)C3CCN(C)CC3)c(C#N)c2c(=O)n1CC#Cc1ccc(Cl)cc1-c1ccnc2c(C(=O)O)csc12" please
8.15

Moving on to the next compound: "Cc1cc(-c2cc(Cl)ccc2OCCn2c(C)nc3cnc(C4(F)CN(C)C4)c(C#N)c3c2=O)c2scc(C(=O)O)c2n1"
7.44

Could you do the same for "Cc1cc(-c2cc(Cl)ccc2OCCn2c(C)nc3cnc([C@H]4C[C@@H](O)C4)c(C#N)c3c2=O)c2scc(C(=O)O)c2n1" , please?
7.82

Same again, this time with "Cc1nc2cnc(N(C)C3CCN(CC4(CF)CCC4)CC3)c(C#N)c2c(=O)n1CC#Cc1ccc(Cl)cc1-c1ccnc2c(C(=O)O)csc12"
7.43

Another compound: "Cc1nc2cc(C(F)(F)F)c(N3CCN(C4CC(F)(F)C4)CC3)c(C#N)c2c(=O)n1CCOc1ccc(Cl)cc1-c1ccnc2c(C(=O)O)csc12"
7.28

And "Cc1nc2cnc(N(C)C3CCN(C4CC(F)(F)C4)CC3)c(C#N)c2c(=O)n1CC#Cc1ccc(Cl)cc1-c1ccnc2c(C(=O)NS(=O)(=O)C(C)C)csc12" ?
8.27

Further, for "Cc1nc2cnc(N(C)C3CCN(CC4CC4)CC3)c(C#N)c2c(=O)n1CCOc1ccc(Cl)cc1-c1ccnc2c(C(=O)O)csc12" ?
7.70

Same again, this time with "CCC(F)(F)CN1CCC(N(C)c2ncc3nc(C)n(CC#Cc4ccc(Cl)cc4-c4ccnc5c(C(=O)O)csc45)c(=O)c3c2C#N)CC1"
7.58

Likewise for "Cc1nc2cc(C(F)(F)F)c(N3CCN(C4COC4)CC3)c(C#N)c2c(=O)n1CCOc1ccc(Cl)cc1-c1ccnc2c(C(=O)O)csc12" ?
7.76

Now consider "Cc1cc(-c2cc(Cl)ccc2OCCn2c(C)nc3cc(C(F)(F)F)c(CN4CCS(=O)(=O)CC4)c(C#N)c3c2=O)c2scc(C(=O)O)c2n1" and answer again.
7.36

Quick one: "COC(=O)c1csc2c(-c3cc(Cl)ccc3OCCn3c(C)nc4cnc(N(C)C5CCN(CC(F)(F)F)CC5)c(C#N)c4c3=O)ccnc12"
7.75

====

# target-entity: recombinant eIF4E (Homo sapiens (Human), UniProt P06730)
# procedure-summary: Fluorescence polarization competition assay for eIF4E binding potency
# test-context: fluorescence polarization competition, 75 nM recombinant eIF4E, 20 nM EDA-m7GDP-ATTO-550; IC50 class; read-out: elF4E FP
pIC50: −log10 of the molar value.
Could you please report measured pIC50 for the items listed next?

Reported pIC50 for recombinant eIF4E (Homo sapiens (Human), UniProt P06730), given "Cc1nc2cc(OC(F)F)c(C#N)c(C#N)c2c(=O)n1CCOc1ccc(Cl)cc1-c1ccnc2c(C(=O)O)csc12" ?
> 7.30

Another: "Cc1cc(-c2cc(Cl)ccc2OCCn2c(C)nc3cc(Cl)c(C4CC4)c(C#N)c3c2=O)c2scc(C(=O)O)c2n1"
> 7.30

Same question, "CCc1cc(-c2cc(Cl)ccc2OCCn2c(C)nc3cc(C(F)(F)F)c(-c4ccccn4)c(C#N)c3c2=O)c2scc(C(=O)O)c2n1" this time
> 7.30

Moving on to the next compound: "CCN(CC)Cc1c(C(F)(F)F)cc2nc(C)n(CCOc3ccc(Cl)cc3-c3ccnc4c(C(=O)O)csc34)c(=O)c2c1C#N"
> 7.30

Next record, please: "Cc1cc(-c2cc(Cl)ccc2OCCn2c(C)nc3c(F)cc(C(F)F)c(C#N)c3c2=O)c2scc(S(=O)(=O)O)c2n1"
> 7.30

Next compound: "Cc1cc(-c2c(CF)cc3nc(C)n(CCOc4ccc(Cl)cc4-c4cc(C)nc5c(C(=O)O)csc45)c(=O)c3c2C#N)cc(C)n1"
6.00 to 7.30

====

# target-entity: recombinant eIF4E (Homo sapiens (Human))
# procedure-summary: Fluorescence polarization competition assay for eIF4E binding potency
# test-context: inhibition of eIF4E/EDA-m7GDP-ATTO-550 binding by 50%; Table 4B calculated values; read-out: IC50
measure-name: IC50 (nM)
Respond numerically; units are nM and should not be typed.

Which IC50 is reported for this compound? COc1cc(-c2cc(Cl)ccc2OCCn2cnc3cnc(C#N)cc3c2=O)cc(C(=O)O)c1OC [compound 107]
3820

// query: C=C(c1ncc2nc(C)n(CCOc3ccc(Cl)cc3-c3cc(C)nc4c(C(=O)O)csc34)c(=O)c2c1C#N)C(F)(F)F [compound 989]
19.8

Same question for Cc1cc(-c2cc(Cl)ccc2OCCn2c(C)nc3cc(Cl)c(N4CCN(C)CC4)c(C#N)c3c2=O)c2sc(C)c(C(=O)O)c2n1 [compound 741] please.
15.2

Repeat for the following compound: O=C(O)c1cccc(-c2cc(Cl)ccc2OCCc2cnc(C(F)F)c3nc(Nc4ccccc4)[nH]c(=O)c23)c1 [compound 173]
141

====

# target-entity: recombinant eIF4E (Homo sapiens (Human), UniProt P06730)
# procedure-summary: Fluorescence polarization competition assay for eIF4E binding potency
# test-context: inhibition of eIF4E/EDA-m7GDP-ATTO-550 binding; calculated IC50 values, Table 4B; read-out: IC50
measure-name: IC50 (nM)
Report the value in nM with no unit label.

Item under review: "Cc1nc2cnc(C3(F)CCN(C)CC3)c(C#N)c2c(=O)n1CCOc1ccc(Cl)cc1-c1ccnc2c(C(=O)O)csc12" . Reported IC50?
12.4

How about "Cc1nc2cnc(N(C)[C@H]3C[C@H](N(C)CCF)C3)c(C#N)c2c(=O)n1CC#Cc1ccc(Cl)cc1-c1ccnc2c(C(=O)O)csc12" ?
11.2

Next entry: "Cc1nc2cnc(N3CCN(C(C)(C)CF)CC3)c(C#N)c2c(=O)n1CCOc1ccc(Cl)cc1-c1ccnc2c(C(=O)NS(C)(=O)=O)csc12"
13.7

Next up: "Cc1nc2cnc(N3CCN(CC(C)(C)F)CC3)c(C#N)c2c(=O)n1CCOc1ccc(Cl)cc1-c1ccnc2c(C(=O)NS(C)(=O)=O)csc12"
17

Let us now turn to "CCc1cc(-c2cc(Cl)ccc2OCCn2c(C)nc3cc(C(F)(F)F)c(N4CC5(C4)CN(C4CC4)C5)c(C#N)c3c2=O)c2scc(C(=O)NS(C)(=O)=O)c2n1"
8.4

And what about the compound "COC(=O)c1csc2c(-c3cc(Cl)ccc3OCCn3c(C)nc4cc(C(F)(F)F)c(N5CCN(C6CC6)CC5)c(C#N)c4c3=O)ccnc12" ?
32.5

Same again, this time with "CCN(c1ncc2nc(C)n(CC#Cc3ccc(Cl)cc3-c3ccnc4c(C(=O)NS(=O)(=O)CC#N)csc34)c(=O)c2c1C#N)C1CCN(C2COC2)CC1"
33.6

Query Cc1nc2cnc(N(C)C3CCN(C)C3)c(C#N)c2c(=O)n1CCOc1ccc(Cl)cc1-c1ccnc2c(C(=O)O)csc12 (stereo not drawn) next
73

Repeat with "Cc1nc2cnc(N(C)C3CCN(CC(F)(F)C(F)F)CC3)c(C#N)c2c(=O)n1CCOc1ccc(Cl)cc1-c1ccnc2c(C(=O)O)csc12"
32.1

Okay, and "Cc1nc2cc(C(F)(F)F)c(N3CCN(C)CC3)c(C#N)c2c(=O)n1CC#Cc1ccc(Cl)cc1-c1ccnc2c(C(=O)O)csc12" ?
44.2

And the next one, "Cc1nc2cnc(N(C)C3CCN(C4COC4)CC3)c(C#N)c2c(=O)n1CCOc1ccc(Cl)cc1-c1ccnc2c(C(=O)O)csc12" ?
27.7

Note, next up: "Cc1nc2cnc(N(C)C3CCN(C(C)(C)C(F)F)CC3)c(C#N)c2c(=O)n1CCOc1ccc(Cl)cc1-c1ccnc2c(C(=O)O)csc12"
19.8

====

# target-entity: recombinant eIF4E (Homo sapiens (Human))
# procedure-summary: Fluorescence polarization competition assay for eIF4E binding potency
# test-context: inhibition of eIF4E/EDA-m7GDP-ATTO-550 binding; calculated IC50 values, Table 4B; read-out: IC50
measure-name: IC50 (nM)
Write down the numeric answer in nM and omit the unit.

Suppose we examine the compound CCN(c1ncc2nc(C)n(CC#Cc3ccc(Cl)cc3-c3ccnc4c(C(=O)NS(C)(=O)=O)csc34)c(=O)c2c1C#N)C1CCN(CC(F)(F)C(F)F)CC1 [compound 1607] ; what IC50 value has been reported?
14.6

And what about the compound CCc1cc(-c2cc(Cl)ccc2OCCn2c(C)nc3c(N(C)C)nc(C4CC4)c(C#N)c3c2=O)c2scc(C(=O)O)c2n1 [compound 1199] ?
18.2

# repeat for CCS(=O)(=O)NC(=O)c1csc2c(-c3cc(Cl)ccc3C#CCn3c(C)nc4cnc(N(C)C5CCN(C6CC(F)(F)C6)CC5)c(C#N)c4c3=O)ccnc12 [compound 1807]
10.4

Now the compound Cc1nc2cnc(N3CCC34CN(CC(F)F)C4)c(C#N)c2c(=O)n1CC#Cc1ccc(Cl)cc1-c1ccnc2c(C(=O)O)csc12 [compound 1499]
27.5

Thanks! And Cc1nc2cc(C(F)(F)F)c(CN(C)C)c(C#N)c2c(=O)n1CCOc1ccc(Cl)cc1-c1ccnc2ccsc12 [compound 2016] ?
613

// same read-out, input: Cc1nc2cnc(N3CCN(CCF)CC3)c(C#N)c2c(=O)n1CC#Cc1ccc(Cl)cc1-c1ccnc2c(C(=O)NS(C)(=O)=O)csc12 [compound 1488]
12.3

Cool, now Cc1nc2cc(C(F)(F)F)c(N3CCN(CC(F)F)CC3)c(C#N)c2c(=O)n1CCOc1ccc(Cl)cc1-c1ccnc2c(C(=O)O)csc12 [compound 1239]
18.2

Now this one: Cc1cc(-c2cc(Cl)ccc2OCCn2c(C)nc3c(C4CC4)ncc(Cl)c3c2=O)c2scc(C(=O)O)c2n1 [compound 1963]
241

Would you kindly repeat that for Cc1cc(-c2cc(Cl)ccc2OCCn2c(C)nc3ccc(N4CCC(O)C4)c(C#N)c3c2=O)c2scc(C(=O)O)c2n1 (stereo not drawn) [compound 1280] ?
4.26

Try this compound too: Cc1nc2cnc(N3CCN(C4(C#N)CC4)CC3)c(C#N)c2c(=O)n1CC#Cc1ccc(Cl)cc1-c1ccnc2c(C(=O)O)csc12 [compound 1368]
19.9

Field entry: Cc1nc2cnc(N(C)C3CCN(C(C)C(F)F)CC3)c(C#N)c2c(=O)n1CC#Cc1ccc(Cl)cc1-c1ccnc2c(C(=O)O)csc12 (stereo not drawn) [compound 1518]
10.7

Try this compound too: Cc1cc(F)c(-c2c(C(F)(F)F)cc3nc(C)n(CCOc4ccc(Cl)cc4-c4cc(C)nc5c(C(=O)O)csc45)c(=O)c3c2C#N)cn1 [compound 1388]
36.2

Provenance of the data: patent US11286268B1
